Measured GI50 accompanies every entry in the list below.
# Test system: colon cancer cells (HCT116)
# Experimental details: Cancer cell line growth inhibition, Sulforhodamine B assay, HCT116
# Format: cell-based
# Reported conditions: Homo sapiens, HCT-116, HCT116 colon cancer cell line; read-out: Cancer Cell Line GI50 Range HCT116

| Compound smiles | GI50 |
| --- | --- |
| COc1ccc(Oc2nc(NCC3CCOCC3)n3ncc(-c4ccc(C(=O)NC5CC5)c(C)c4)c3n2)c(F)c1 | ≤ 100 nM |
| Cc1cc(-c2cnn3c(NC[C@@H]4CCOC4)cc(N[C@H]4CCCC[C@H]4O)nc23)ccc1C(=O)NC1CC1 | ≤ 100 nM |
| Cc1cc(-c2cnn3c(NCC4(O)CCOCC4)cc(NC4CCCC4)nc23)ccc1C(=O)NC1CC1 | 100 to 500 nM |
| Cc1cc(-c2cnn3c(NCC4CCOCC4)cc(NCC4CC4)nc23)ccc1C(=O)NC1CC1 | ≤ 100 nM |
| Cc1cc(-c2cnn3c(NCc4cccnc4)cc(OC4CCOCC4)nc23)ccc1C(=O)NC1CC1 | 100 to 500 nM |
| CC[C@H](Nc1cc(NC[C@H]2CCOC2)n2ncc(-c3ccc(C(=O)NC4CC4)c(C)c3)c2n1)[C@H](C)O | 100 to 500 nM |
| Cc1cc(-c2cnn3c(NCC4(F)CCNCC4)cc(Oc4cccc(F)c4)nc23)ccc1C(=O)NC1CC1 | ≤ 100 nM |

----------
# System: colon cancer cells (HCT116)
# Experimental details: Cancer cell line growth inhibition, Sulforhodamine B assay, HCT116
# Assay type: cell-based
# Reported conditions: Homo sapiens, HCT-116, HCT116 colon cancer cell line; read-out: Cancer Cell Line GI50 Range HCT116
Measurement type: GI50

| Compound | Test value |
| --- | --- |
| Cc1cc(-c2cnn3c(NCCCn4ccnc4)cc(Oc4ccccc4)nc23)ccc1C(=O)NC1CC1 [Example C61] | ≤ 100 nM |
| Cc1cc(-c2cnn3c(NCc4cccnc4)cc(NC4CCOCC4)nc23)ccc1C(=O)NC1CC1 [Example C49] | 100 to 500 nM |
| Cc1cc(-c2cnn3c(NCC4CCOCC4)cc(NC4CCC4)nc23)ccc1C(=O)NC1CC1 [Example C109] | ≤ 100 nM |
| Cc1cc(-c2cnn3c(NCC4CCOCC4)nc(NC4CCOCC4)nc23)ccc1C(=O)NC1CC1 [Example C23] | 100 to 500 nM |
| Cc1cc(-c2cnn3c(NCC4CCOCC4)cc(N[C@H]4COC[C@H]4O)nc23)ccc1C(=O)NC1CC1 [Example C107] | 100 to 500 nM |
| Cc1cc(-c2cnn3c(NCC4CCOCC4)cc(N[C@H]4CCOC4)nc23)ccc1C(=O)NC1CC1 [Example C138] | ≤ 100 nM |
| Cc1cc(-c2cnn3c(NC[C@H]4C[C@](C)(O)C4)cc(NC4CCCC4)nc23)ccc1C(=O)NC1CC1 [Example C186] | ≤ 100 nM |
| COC[C@@H](Nc1cc(NCC2CCOCC2)n2ncc(-c3ccc(C(=O)NC4CC4)c(C)c3)c2n1)C(C)C [Example C104] | ≤ 100 nM |
| Cc1cc(-c2cnn3c(NCC4CCOCC4)cc(N[C@H](CO)CC(C)C)nc23)ccc1C(=O)NC1CC1 [Example C130] | ≤ 100 nM |
| COCCNc1cc(N[C@H]2CCCC[C@H]2O)nc2c(-c3ccc(C(=O)NC4CC4)c(C)c3)cnn12 [Example C108] | ≤ 100 nM |
| Cc1cc(-c2cnn3c(NCC4(F)CCNCC4)cc(NC4CCCC4)nc23)ccc1C(=O)NC1CC1 [Example C169] | 100 to 500 nM |
| Cc1cc(-c2cnn3c(NC[C@H]4CC[C@@H](O)CC4)nc(Oc4cccc(F)c4)nc23)ccc1C(=O)NC1CC1 [Example C24] | ≤ 100 nM |
| Cc1cc(-c2cnn3c(NCC4CCOCC4)cc(N[C@@H](CO)C(C)C)nc23)ccc1C(=O)NC1CC1 [Example C121] | 100 to 500 nM |
| O=C(NC1CC1)c1ccc(-c2cnn3c(NCCN4CCOCC4)cc(Oc4cccc(F)c4F)nc23)cc1Cl [Example C33] | ≤ 100 nM |
| O=C(NC1CC1)c1ccc(-c2cnn3c(NCCN4CCOCC4)cc(Oc4cccc(F)c4)nc23)cc1Cl [Example C34] | ≤ 100 nM |
| Cc1cc(-c2cnn3c(NCC4CCOCC4)cc(Oc4cncc(F)c4)nc23)ccc1C(=O)NC1CC1 [Example C56] | ≤ 100 nM |
| Cc1cc(-c2cnn3c(NCC4(CO)CCOCC4)cc(NC4CCCC4)nc23)ccc1C(=O)NC1CC1 [Example C92] | 100 to 500 nM |
| Cc1cc(-c2cnn3c(NCC4CCOCC4)cc(OC4CCN(C5COC5)C4)nc23)ccc1C(=O)NC1CC1 (centres unmarked) [Example C116] | ≤ 100 nM |
| Cc1cc(-c2cnn3c(NCCN4CCC(O)CC4)cc(Oc4cccc(F)c4)nc23)ccc1C(=O)NC1CC1 [Example C182] | ≤ 100 nM |
| Cc1cc(-c2cnn3c(NCC4CCOCC4)cc(N[C@H]4CCCC[C@@H]4O)nc23)ccc1C(=O)NC1CC1 [Example C125] | ≤ 100 nM |
| Cc1cc(-c2cnn3c(NC[C@H]4CC[C@@H](O)CC4)cc(NC4CCOCC4)nc23)ccc1C(=O)NC1CC1 [Example C179] | ≤ 100 nM |
| Cc1cc(-c2cnn3c(NC[C@H]4CC[C@@H](O)CC4)cc(Oc4cccnc4)nc23)ccc1C(=O)NC1CC1 [Example C176] | ≤ 100 nM |
| Cc1cc(-c2cnn3c(NCCN4CCOCC4)cc(Oc4cccc(N(C)C)c4)nc23)ccc1C(=O)NC1CC1 [Example C96] | > 500 nM |
| Cc1cc(-c2cnn3c(NCC4CCOCC4)cc(N[C@@H]4CCCC[C@@H]4O)nc23)ccc1C(=O)NC1CC1 [Example C118] | ≤ 100 nM |
| Cc1cc(-c2cnn3c(NCC4CCOCC4)cc(N4C5CCC4CC(O)C5)nc23)ccc1C(=O)NC1CC1 (centres unmarked) [Example C66] | 100 to 500 nM |
| CC[C@H](Nc1cc(NC[C@@H]2CCOC2)n2ncc(-c3ccc(C(=O)NC4CC4)c(C)c3)c2n1)[C@H](C)O [Example C134] | 100 to 500 nM |
| Cc1cc(-c2cnn3c(NC[C@H]4C[C@H](O)C4)cc(NC4CCCC4)nc23)ccc1C(=O)NC1CC1 [Example C172] | ≤ 100 nM |
| Cc1cc(-c2cnn3c(NCC4CCOCC4)cc(N[C@@H]4CCOC4)nc23)ccc1C(=O)NC1CC1 [Example C136] | ≤ 100 nM |
| Cc1cc(-c2cnn3c(NCCN4CCOCC4)nc(Oc4cccc(F)c4)nc23)ccc1C(=O)NC1CC1 [Example C27] | ≤ 100 nM |

----------
Listed compounds paired with reported GI50
# Test system: colon cancer cells (HCT116)
# Experimental details: Cancer cell line growth inhibition, Sulforhodamine B assay, HCT116
# Format: cell-based
# Reported conditions: Homo sapiens, HCT-116, HCT116 colon cancer cell line; read-out: Cancer Cell Line GI50 Range HCT116
Measurement type: GI50

| Compound smiles | Test value |
| --- | --- |
| Cc1cc(-c2cnn3c(NCC4CCOCC4)cc(N[C@H](CO)C4CCCC4)nc23)ccc1C(=O)NC1CC1 | ≤ 100 nM |
| Cc1cc(-c2cnn3c(NCC4COC4)cc(N[C@H]4CCCC[C@H]4O)nc23)ccc1C(=O)NC1CC1 | ≤ 100 nM |
| Cc1cc(-c2cnn3c(NCC4CCOCC4)cc(N[C@@H](C4CC4)C(C)(C)O)nc23)ccc1C(=O)NC1CC1 | ≤ 100 nM |
| COCCNc1nc(OC2CCCC2)nc2c(-c3ccc(C(=O)NC4CC4)cc3)cnn12 | 100 to 500 nM |

----------
# Test system: colon cancer cells (HCT116)
# Experimental details: Cancer cell line growth inhibition, Sulforhodamine B assay, HCT116
# Format: cell-based
# Reported conditions: Homo sapiens, HCT-116, HCT116 colon cancer cell line; read-out: Cancer Cell Line GI50 Range HCT116
# Protocol: Breast cancer cells (MDA-MB-231 and MDA-MB-468), colon cancer cells (HCT116) and ovarian cancer cells (PA-1 and OVCAR-3) were seeded (1000 to 4000 in 80 μl per well depending on the cell growth rate) into 96 well plates 24 hours before compound overlay. […] Sulforhodamine B (purchased from Sigma, Oakville, ON, Canada) is a water-soluble dye that binds to the basic amino acids of the cellular proteins. […] Absorbance is read at 570 nm. […]
In this section, each of the molecules is paired with its reported GI50.

| Compound smiles | GI50 |
| --- | --- |
| Cc1cc(-c2cnn3c(NCCN(C)C)cc(Oc4cccc(F)c4)nc23)ccc1C(=O)NC1CC1 | ≤ 100 nM |
| Cc1cc(-c2cnn3c(NC[C@H]4C[C@H](O)C4)cc(Oc4cccnc4)nc23)ccc1C(=O)NC1CC1 | ≤ 100 nM |
| Cc1cc(-c2cnn3c(NCC4CCOCC4)cc(-c4ccncc4)nc23)ccc1C(=O)NC1CC1 | 100 to 500 nM |
| Cc1cc(-c2cnn3c(NCC4CCOCC4)cc(Nc4cccnc4)nc23)ccc1C(=O)NC1CC1 | 100 to 500 nM |
| Cc1cc(-c2cnn3c(NCC4(F)CCNCC4)cc(OC4CCCC4)nc23)ccc1C(=O)NC1CC1 | 100 to 500 nM |
| Cc1cc(-c2cnn3c(NCC4CCOCC4)cc(N[C@H]4CCN(C5COC5)C4)nc23)ccc1C(=O)NC1CC1 | 100 to 500 nM |
| Cc1cc(-c2cnn3c(NCC4CCOCC4)cc(NCC4(CO)CC4)nc23)ccc1C(=O)NC1CC1 | 100 to 500 nM |
